System: CCRIS mutagenicity, Ames/micronucleus/aberration tests
Experiment: CCRIS mutagenicity studies
Conditions: Test System: AMES SALMONELLA TYPHIMURIUM; Strain/Indicator: TA1535; Metabolic Activation: NONE; Method: STANDARD PLATE
Calls of active or inactive are those of the source. How the calls were made is not given here.
// one of y for active, n for inactive, no free text

Example cases with answers are listed next.
[
  {
    "smiles.str": "C[C@]12CC[C@H](OC(=O)/C=C/c3cccc(N(CCCl)CCCl)c3)CC1=CC[C@@H]1[C@@H]2CC[C@]2(C)NC(=O)CC[C@@H]12",
    "category": "y"
  },
  {
    "smiles.str": "Cc1cc(-c2ccc(N=Nc3cc(S(=O)(=O)O)c4ccccc4c3N)c(C)c2)ccc1N=Nc1cc(S(=O)(=O)O)c2ccccc2c1N",
    "category": "n"
  },
  {
    "smiles.str": "Nc1cc([N+](=O)[O-])c(N)cc1Cl",
    "category": "n"
  },
  {
    "smiles.str": "Cc1cc(N)c(C)cc1N",
    "category": "n"
  }
]

Enquiry: Hi, sorry to bother you, what did the test record for CC(F)(F)F ?
Return: n

Enquiry: Hi, sorry to bother you, what did the test record for O=C1c2ccc(O)c(O)c2C(=O)c2c(O)ccc(O)c21 ?
Return: n

Enquiry: Hi, sorry to bother you, what did the test record for CC(C)Nc1nc(Cl)nc(NC(C)C)n1 ?
Return: n

Enquiry: Hi, sorry to bother you, what did the test record for CCCCOc1ccc2nc3cc(Cl)ccc3c(NCCCN(CC)CCCl)c2n1 ?
Return: n

Enquiry: Hi, sorry to bother you, what did the test record for CCOC(=O)[C@H]1O[C@@H]1C(=O)N[C@@H](CC(C)C)C(=O)NCCC(C)C ?
Return: n

Enquiry: Hi, sorry to bother you, what did the test record for C#C[C@]1(OC(C)=O)CC[C@H]2[C@@H]3CCC4=CC(=O)CC[C@@H]4[C@H]3CC[C@@]21C ?
Return: n

Enquiry: Hi, sorry to bother you, what did the test record for O=C1c2ccccc2C(=O)c2c1ccc(O)c2O ?
Return: n
